Multi-source literature compilation: pKi on the protein given by its sequence.
Sequence of the target: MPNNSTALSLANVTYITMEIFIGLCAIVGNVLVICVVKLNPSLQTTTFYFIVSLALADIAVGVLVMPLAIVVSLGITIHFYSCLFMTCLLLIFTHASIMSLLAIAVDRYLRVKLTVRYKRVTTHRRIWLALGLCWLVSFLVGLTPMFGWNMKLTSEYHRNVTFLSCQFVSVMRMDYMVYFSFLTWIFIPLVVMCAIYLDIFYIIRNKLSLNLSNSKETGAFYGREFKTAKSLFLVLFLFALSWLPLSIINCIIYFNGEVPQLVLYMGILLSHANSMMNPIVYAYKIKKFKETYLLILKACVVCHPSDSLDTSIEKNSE
pKi: −log10 of the molar value.
Kind request: treat 7 as inclusive, so pKi at 7 or higher is yes (1), anything lower is no (0).

entry_smiles=Nc1nc2ccccc2c2cn(-c3cccc(F)c3)nc12 system_tested="the protein given by its sequence" discrete_label="no (0)"
entry_smiles=N#CCOc1ccc(-c2cn3c(=O)n(-c4ccccc4)nc3c(N)n2)cc1 system_tested="the protein given by its sequence" discrete_label="no (0)"
entry_smiles=CNC(=O)[C@@]12C[C@@H]1[C@@H](n1cnc3c(NC)nc(-n4cc(-c5ccccc5)nn4)nc31)[C@H](O)[C@@H]2O system_tested="the protein given by its sequence" discrete_label="yes (1)"
entry_smiles=O=C(Nc1ccccc1)Nc1nc(NC2CCCCC2)nc2nc(-c3ccco3)nn12 system_tested="the protein given by its sequence" discrete_label="no (0)"

Is it the case that CCn1nnc([C@H]2O[C@@H](n3cnc4c(N)nc(N[C@H](C)Cc5ccc(Br)cc5)nc43)[C@H](O)[C@@H]2O)n1 has pKi reaching or exceeding 7? no (0)

Is it the case that Nc1ncnc2c1ncn2C1CCCCCC1 has pKi reaching or exceeding 7? no (0)

Is it the case that O=C([C@H]1S[C@@H](n2cnc3c(NCc4cccc(I)c4)nc(Cl)nc32)[C@H](O)[C@@H]1O)N1CCSCC1 has pKi reaching or exceeding 7? no (0)

Is it the case that O=C(Nc1nc(-c2ccccc2)nc2sc(-c3ccco3)nc12)c1ccco1 has pKi reaching or exceeding 7? yes (1)

----------
Multi-source literature compilation: Ki on Adenosine receptor A3 (Homo sapiens, UniProt P0DMS8).
Remember to follow the number with its unit.

What value of Ki on Adenosine receptor A3 (Homo sapiens, UniProt P0DMS8) does O=C(Nc1nc2ccccc2c2cn(-c3ccccc3)nc12)c1ccsc1 have? 40 nM

What value of Ki on Adenosine receptor A3 (Homo sapiens, UniProt P0DMS8) does CCn1nnc([C@H]2O[C@@H](n3cnc4c(N)nc(Cl)nc43)[C@H](O)[C@@H]2O)n1 have? 13.8 nM

What value of Ki on Adenosine receptor A3 (Homo sapiens, UniProt P0DMS8) does Nc1nc2cn(CCc3ccccc3)nc2c2nc(-c3ccco3)nn12 have? 315 nM

----------
Multi-source literature compilation: pKi on Adenosine receptor A3 (Homo sapiens, UniProt P0DMS8).
By convention, pKi is the negative base-10 log of a molar concentration.

compound=N#Cc1c(N)nc(SCC(N)=O)c(C#N)c1-c1ccco1 quantitative_readout=6.75
compound=CCOC(=O)c1c(-c2ccccc2)nc(CC)c(C(=O)SCC)c1CCN1C(=O)c2ccccc2C1=O quantitative_readout=6.61
compound=CCC(O)(C#Cc1nc(N)c2nc(-c3cccc(F)c3)n(C)c2n1)CC quantitative_readout=6.48
compound="CC1=C(C(=O)OC(C)C)C(c2ccco2)n2c(nc3ccccc32)N1 (centres undefined)" quantitative_readout=8.70
compound=CCNC(=O)[C@H]1O[C@@H](n2cnc3c(Nc4ccc(OCC(=O)NC5CCCCC5)cc4)ncnc32)[C@H](O)[C@@H]1O quantitative_readout=7.14

What value of pKi on Adenosine receptor A3 (Homo sapiens, UniProt P0DMS8) does O=C(Nc1nc(-c2ccccc2)c(C(=O)c2ccc(Cl)cc2)s1)c1ccccc1 have? 6.37

What value of pKi on Adenosine receptor A3 (Homo sapiens, UniProt P0DMS8) does Cc1ccc(C(=O)Nc2nc(-c3ccccc3)cn3cc(-c4ccccc4)nc23)cc1 have? 6.65

What value of pKi on Adenosine receptor A3 (Homo sapiens, UniProt P0DMS8) does O=C(Nc1nc(-c2ccccc2)c(-c2nc3ccccc3c(=O)n2-c2ccccc2)s1)c1ccco1 have? 6.89
